Assay: Inhibitory activity against HIV-1 IIIB in CEM-SS infected cells (Experiment 1)
Result Type: EC50 (nM)
Please state the figure in nM; there is no need to write the unit.

The molecule listed as Cc1cn([C@H]2C[C@H](N=[N+]=[N-])[C@@H](CO)O2)c(=O)[nH]c1=O shows EC50 equal to 126
